target: SARS-CoV-2 prefusion stabilized trimer protein (WIV02 isolate spike protein) (UniProt P0DTC2 14-1213); experiment: ELISA
Would you mind telling me the reported log10(EC50) of each entry?
The figures below represent log10 of EC50, where EC50 is stated in nM.

*Q* Any idea what its log10(EC50) is? The binder is 1-B11-A (antibody, V domains shown) VH: QVQLQQSGPELVKPGASVKISCKASGYTFTDHYINWVKQRPGQGLEWIGWIFPGSGSTYYNEQFKGKATLTVDKSSNTAYMLLSSLTSEDSAVYFCARSGGLRLGFAYWGQGTLVTVSA VL: DIQMTQTTSSLSASLGDRVTISCRASQDISNYLNWYQQKPDGTVKLLIYYTSRLHSGVPSRFSGSGSGTDYSLTISNLEQEDISTYFCQQVNTLPYTFGGGTKLEIK
*A* 1.01

*Q* GET /values?readout=log10(EC50)&item= 2-J9-A (antibody, V domains shown) VH: EVQLQQSGPELVKPGASVKMSCKASGYTFTDYNIHWVKQSHGKSLEWIGYINPNNGGTDYNQKFQGKATLTVNKSSSTAYMELRSLTSEDSAVYYCARGGFYGNYGAYYGMDFWGQGTSVTVSS VL: DIQMTQSPASLSASVGETVTITCRTSENIYSHLAWYQQTQGKSPQLLVYNTKTLAEGVPSRFTGSGSGTQFSLKINSLQPEDFGSYYCQHHYGIPPEFGGGTKLEIK
*A* -0.96

*Q* If you can, please state the reported log10(EC50) value of 10-I12-A (antibody, V domains shown) VH: RVQLQQSGPELVRPGTSVKISCKASGYTFTDSYINWVTQRPGQGLDWIGWIFPGNDNTYYNEKFEGKATLTLDKSSSTAYMLLSSLTSEDSAVYFCARSGGLRLGFAYWGQGTLVTVSA VL: NIVLTQSPASLAVSRGQRATISCRASESVDSYGHSFIHWYQQKPGQPPKILIYLASKLESGVPARFSGSGSRTDFTLTIDPVEADDAATYYCQQNNEDPWTFGGGTKLEIK .
*A* 1.81

*Q* Can you share its log10(EC50)? I mean this binder: 9-P9-A (antibody, V domains shown) VH: DVKLVESGEGLVKPGGSLKLSCAASGFSFSNFGMSWVRQTPEKRLEWVAYISSGGDYIYYADTVKGRFTISRDNARNTLYLQMSSLKSEDTAIYYCTRGYFDYWGQGTTLTVSS VL: DVLMTQTPLSLPVSLGDQASISCRSSQSIVHSNGNTYLEWYLQKPGQSPKLLIYTVSNRFSGVPDRFSGSGSGTDFTLKISRVEAEDLGVYYCFQGSHVPYTFGGGTKLEMR
*A* -1.30

*Q* Requested read-out: log10(EC50). Entry: 6-L8-A (antibody, V domains shown) VH: EVQLQQSVAELVRPGASVKLSCTPSGFNIKNTYMHWMKQRPEQGLEWIGRINPANDDTKYAPKFQDKATITADTSSNTAYLQLSSLTSEDTAIYYCVYDVRWYFDVWGTGTTVTVSS VL: DVVMTQTPLSLPVSLGDQASISCRSSQGLVHSNGNTYLHWYLQKPGQSPKLLIYKVSNRFSGVPDRFSGSGSGTDFTLKISRVEAEDLGVYFCSQSTHVPPTFGAGTKLELK
*A* 0.83
